Molecular target: Pantothenate synthetase (Mycobacterium tuberculosis)
Sequence (P9WIL5 whole entry): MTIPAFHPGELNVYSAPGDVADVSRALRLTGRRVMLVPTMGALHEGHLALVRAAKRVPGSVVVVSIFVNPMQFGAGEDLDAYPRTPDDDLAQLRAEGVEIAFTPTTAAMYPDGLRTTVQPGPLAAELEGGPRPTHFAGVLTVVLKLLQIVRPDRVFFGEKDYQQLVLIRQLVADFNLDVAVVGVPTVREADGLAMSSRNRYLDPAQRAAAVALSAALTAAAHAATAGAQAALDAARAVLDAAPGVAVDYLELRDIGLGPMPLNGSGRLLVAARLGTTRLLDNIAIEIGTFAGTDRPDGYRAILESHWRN
Test: Competitive inhibition of Mycobacterium tuberculosis pantothenate synthetase using beta-alanine by Dixon plot analysis
OBSERVATION TYPE: pKi
Give bare numbers, as −log10 of the molar value.

IN: Quick one: pKi for COC(=O)c1cc2c(OCc3ccccc3)cc(N)cc2[nH]1 ?
OUT: 4.71
